System: P388 leukemia ip, CD2F1 mice, survival T/C
assay-remarks: NCI In Vivo Anticancer Drug Screen. Data for tumor model P388 Leukemia (intraperitoneal) in CD2F1 (CDF1) mice
condition-context: endpoint: median survival time; dose: 25.0 mg/kg/injection; schedule: Q01DX009 (ip); vehicle: distilled water + Tween-80; higher = longer survival
Toxic doses and inconclusive results are not listed.
observation-type: T/C

Use these answered entries as a reference point.
CCOC(=O)c1ccc(NC(=O)Nc2nn[nH]n2)cc1 | 105 % of control
COC(=O)C(CSC(c1ccccc1)(c1ccccc1)c1ccccc1)NC(=O)CC(NC(=O)OCc1ccccc1)C(N)=O (centres undefined) | 93 % of control
COC(=O)C(Cc1cnc2nc(N)nc(N)c2n1)C(=O)OC | 104 % of control

[Q] # input molecule: OCC1OC(C2N(c3ccccc3)CCN2c2ccccc2)C(O)C1O (centres undefined) ; wanted: its T/C
[A] 100 % of control

###

The following molecules are shown together with reported T/C values.
System: P388 leukemia ip, CD2F1 mice, survival T/C
assay-remarks: NCI In Vivo Anticancer Drug Screen. Data for tumor model P388 Leukemia (intraperitoneal) in CD2F1 (CDF1) mice
condition-context: endpoint: median survival time; dose: 100.0 mg/kg/injection; schedule: Q04DX002 (ip); vehicle: saline with Tween-80; higher = longer survival
Inconclusive results and toxic doses are left out.

O=C1C=CCCCC1(c1ccccc1)c1ccccc1 | 96 % of control
OCC(O)/C=C/c1ccccc1 (stereo unspecified) | 96 % of control
O=C1CC2CCC1CC2c1cnc[nH]1 (stereo unspecified) | 102 % of control
Cc1nc2ccccc2c(=O)n1NC(=S)Nc1ccc(Cl)cc1 | 90 % of control

Now, please, on to the next molecule.
[Q] # input molecule: `O=C(Oc1c(OC(=O)c2ccccc2)c(OC(=O)c2ccccc2)c(OC(=O)c2ccccc2)c(OC(=O)c2ccccc2)c1OC(=O)c1ccccc1)c1ccccc1` ; wanted: its T/C
[A] 107 % of control

###

Test system: P388 leukemia ip, CD2F1 mice, survival T/C
assay-remarks: NCI In Vivo Anticancer Drug Screen. Data for tumor model P388 Leukemia (intraperitoneal) in CD2F1 (CDF1) mice
condition-context: endpoint: median survival time; dose: 240.0 mg/kg/injection; schedule: Q01DX005 (ip); vehicle: Klucel (hydroxypropylcellulose) (HPC); higher = longer survival
Inconclusive results and toxic doses are left out.
The following compounds are shown together with reported T/C values.

Use these answered entries as a reference point.
CCOC(=O)C1CN(C(=O)OCC)CCC1NC(C)=O (stereo not given) | 98 % of control
c1ccc2c(SCCCSc3c4ccccc4nc4ccccc34)c3ccccc3nc2c1 | 95 % of control
CCOC1(C)CC(c2cc(OC)c(OC)c(OC)c2)c2cc3c(cc2O1)OCO3 (stereo not given) | 92 % of control
COC1(OC)OC(c2ccccc2)=C(C#N)C(c2ccc(Cl)cc2)C1(OC)OC (stereo not given) | 88 % of control

[Q] # input compound: O=C1C(C2(O)C(=O)Nc3ccccc32)CCCC1C1(O)C(=O)Nc2ccccc21 (stereo not given) ; wanted: its T/C
[A] 89 % of control

###

The following compounds are shown together with reported T/C values.
System: P388 leukemia ip, CD2F1 mice, survival T/C
assay-remarks: NCI In Vivo Anticancer Drug Screen. Data for tumor model P388 Leukemia (intraperitoneal) in CD2F1 (CDF1) mice
condition-context: endpoint: median survival time; dose: 100.0 mg/kg/injection; schedule: Q01DX009 (ip); vehicle: other; higher = longer survival
Inconclusive results and toxic doses are left out.

[Q] # input compound: `CC(=O)c1ccc2ccccc2n1` ; wanted: its T/C
[A] 111 % of control

[Q] Also, `Cc1ccc(S(=O)(=O)N/N=C/C=N/NS(=O)(=O)c2ccc(C)cc2)cc1` please.
[A] 96 % of control

[Q] Also, `COc1cc(Br)cc(C(=O)O)c1OC` please.
[A] 102 % of control

[Q] Also, `CNC(=S)NNc1cccc([N+](=O)[O-])c1` please.
[A] 91 % of control

[Q] Also, `CCCCCCCCCCCCCCCCS(=O)(=O)N/N=C(/c1ccc(OC)c(OC)c1)N1CCCCC1` please.
[A] 91 % of control

[Q] Also, COC1CC(NC(C)=O)C(OC(=O)c2ccccc2)C(CBr)O1 (stereo unspecified) please.
[A] 104 % of control

Where do the numbers come from? From PubChem BioAssay AID330.
